measured.target: Topoisomerase I (Bos taurus) (UniProt Q2HPH0)
Sequence (Q2HPH0 as listed by the source): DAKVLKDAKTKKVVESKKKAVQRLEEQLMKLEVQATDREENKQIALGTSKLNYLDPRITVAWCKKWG
experiment.summary: Inhibition of calf thymus DNA topoisomerase 1 at 20 uM using pBR322 DNA as substrate after 30 mins by agarose gel electrophoresis method
The source made the active and inactive calls. The calls are words filed in the database; no cut-off is given here.
outcome.measure: inhibition

[[record]]
record_smiles = "CC[C@@]1(O)C(=O)OCc2c1cc1n(c2=O)Cc2cc3ccccc3nc2-1"
measured_target = "Topoisomerase I (Bos taurus) (UniProt Q2HPH0)"
outcome_measure = "inhibition"
result_value = "Active"

[[record]]
record_smiles = "Cc1ccc(-c2nc(C(c3c[nH]c4ccc(Br)cc34)c3c[nH]c4ccc(Br)cc34)cc3c2[nH]c2ccccc23)cc1"
measured_target = "Topoisomerase I (Bos taurus) (UniProt Q2HPH0)"
outcome_measure = "inhibition"
result_value = "Active"

[[record]]
record_smiles = "Fc1ccc(-c2nc(C(c3c[nH]c4ccccc34)c3c[nH]c4ccccc34)cc3c2[nH]c2ccccc23)cc1"
measured_target = "Topoisomerase I (Bos taurus) (UniProt Q2HPH0)"
outcome_measure = "inhibition"
result_value = "Active"

[[record]]
record_smiles = "O=[N+]([O-])c1ccc2[nH]cc(C(c3cc4c([nH]c5ccccc54)c(-c4ccc(F)cc4)n3)c3c[nH]c4ccc([N+](=O)[O-])cc34)c2c1"
measured_target = "Topoisomerase I (Bos taurus) (UniProt Q2HPH0)"
outcome_measure = "inhibition"
result_value = "Active"


----------
System: MCF7
experiment.summary: Antiproliferative activity against human MCF7 cells after 48 hrs by MTT assay
Format: functional, cell-based
condition.notes: MCF7, 48 h
outcome.measure: pIC50
Numbers only, as −log10 of the molar value.

These solved cases illustrate the format of a correct answer.
[[record]]
record_smiles = "Cc1ccc(-c2nc(C(c3c[nH]c4ccc([N+](=O)[O-])cc34)c3c[nH]c4ccc([N+](=O)[O-])cc34)cc3c2[nH]c2ccccc23)cc1"
measured_target = "MCF7"
result_value = 4.77

[[record]]
record_smiles = "Fc1ccc(-c2nc(C(c3c[nH]c4ccc(F)cc34)c3c[nH]c4ccc(F)cc34)cc3c2[nH]c2ccccc23)cc1"
measured_target = "MCF7"
result_value = 4.70


Hi team, please reply with pIC50 for each item in this list.
1. COc1cc(-c2nc(C(c3c[nH]c4ccc([N+](=O)[O-])cc34)c3c[nH]c4ccc([N+](=O)[O-])cc34)cc3c2[nH]c2ccccc23)cc(OC)c1OC
2. COc1cc(-c2nc(C(c3c[nH]c4ccc(F)cc34)c3c[nH]c4ccc(F)cc34)cc3c2[nH]c2ccccc23)cc(OC)c1OC
3. O=[N+]([O-])c1ccc2[nH]cc(C(c3cc4c([nH]c5ccccc54)c(-c4ccc(F)cc4)n3)c3c[nH]c4ccc([N+](=O)[O-])cc34)c2c1

[4.79, 4.87, 4.84]

Hi team, please reply with pIC50 for each item in this list.
1. COc1cc(-c2nc(C(c3c[nH]c4ccc(Br)cc34)c3c[nH]c4ccc(Br)cc34)cc3c2[nH]c2ccccc23)cc(OC)c1OC
2. COc1ccc(-c2nc(C(c3c[nH]c4ccc([N+](=O)[O-])cc34)c3c[nH]c4ccc([N+](=O)[O-])cc34)cc3c2[nH]c2ccccc23)cc1

1. 4.48
2. 4.30

----------
System: MCF7
experiment.summary: Antiproliferative activity against human MCF7 cells after 48 hrs by MTT assay
Assay type: functional, cell-based
condition.notes: MCF7, 48 h
outcome.measure: pIC50
Give bare numbers, as −log10 of the molar value.

These solved cases illustrate the format of a correct answer.
[[record]]
compound = "COc1cc(-c2nc(C(c3c[nH]c4ccccc34)c3c[nH]c4ccccc34)cc3c2[nH]c2ccccc23)cc(OC)c1OC"
measured_target = "MCF7"
outcome_measure = "pIC50"
result_value = 4.46

[[record]]
compound = "Cc1ccc(-c2nc(C(c3c[nH]c4ccc(Br)cc34)c3c[nH]c4ccc(Br)cc34)cc3c2[nH]c2ccccc23)cc1"
measured_target = "MCF7"
outcome_measure = "pIC50"
result_value = 5.23


Hi team, please reply with pIC50 for each item in this list.
1. Cc1ccc(-c2nc(C(c3c[nH]c4ccccc34)c3c[nH]c4ccccc34)cc3c2[nH]c2ccccc23)cc1
2. COc1cccc2c1C(=O)c1c(O)c3c(c(O)c1C2=O)C[C@@](O)(C(=O)CO)C[C@@H]3O[C@H]1C[C@H](N)[C@H](O)[C@H](C)O1 [DOXORUBICIN]
3. COc1ccc2[nH]cc(C(c3cc4c([nH]c5ccccc54)c(-c4cc(OC)c(OC)c(OC)c4)n3)c3c[nH]c4ccccc34)c2c1 (centres undefined)

1: 4.74; 2: 5.66; 3: 4.35

Hi team, please reply with pIC50 for each item in this list.
1. COc1ccc2[nH]cc(C(c3cc4c([nH]c5ccccc54)c(-c4ccc(C)cc4)n3)c3c[nH]c4ccc(OC)cc34)c2c1
2. COc1ccc(-c2nc(C(c3c[nH]c4ccc(OC)cc34)c3c[nH]c4ccc(OC)cc34)cc3c2[nH]c2ccccc23)cc1
3. COc1cc(-c2nc(C(c3c[nH]c4ccccc34)c3c[nH]c4ccc(C#N)cc34)cc3c2[nH]c2ccccc23)cc(OC)c1OC (centres undefined)
4. Cc1ccc(-c2nc(C(c3c[nH]c4ccc(C#N)cc34)c3c[nH]c4ccc(C#N)cc34)cc3c2[nH]c2ccccc23)cc1

4.56
4.52
4.93
4.76
